assay: VBL PK study in wild‐type and Mdr1a/b(−/−) mice, observed serum and tissue data; conditions: female, Mdr1a/b (−/−) knock-out, FVB background, mouse, serum, iv, 2 mg/kg
result-type: AUC (µM·h)
Express the result in µM·h but write the number alone.

QUERY: Specify reported AUC for the compound shown: `CC[C@]1(O)C[C@@H]2CN(CCc3c([nH]c4ccccc34)[C@@](C(=O)OC)(c3cc4c(cc3OC)N(C)[C@H]3[C@@](O)(C(=O)OC)[C@H](OC(C)=O)[C@]5(CC)C=CCN6CC[C@]43[C@@H]65)C2)C1`
RESULT: 0.215

---

assay: VBL PK study in wild‐type and Mdr1a/b(−/−) mice, observed serum and tissue data; conditions: female, Mdr1a/b (−/−) knock-out, FVB background, mouse, in vivo, iv, 2 mg/kg, t1/2, Mdr1a/b (−/−) mice, kidney, 2 mg/kg IV, Obs
result-type: half-life (min)
Express the result in min but write the number alone.

QUERY: Specify reported half-life for the compound shown: `CC[C@]1(O)C[C@@H]2CN(CCc3c([nH]c4ccccc34)[C@@](C(=O)OC)(c3cc4c(cc3OC)N(C)[C@H]3[C@@](O)(C(=O)OC)[C@H](OC(C)=O)[C@]5(CC)C=CCN6CC[C@]43[C@@H]65)C2)C1`
RESULT: 107
